Organism: Rattus norvegicus
Test description: Protective index (TD50/ED50) was determined against scMet induced seizure in rat.
Assay type: functional
Catalogue of molecules with associated PI

- Smi: "O=C(Cc1ccc(Cl)cc1)NS(=O)(=O)C(F)(F)F"
  PI: 4.2
- Smi: "COc1cccc(CC(=O)NS(=O)(=O)C(F)(F)F)c1"
  PI: 4.2
- Smi: "O=C(Cc1ccccc1)NS(=O)(=O)C(F)(F)F"
  PI: 34
- Smi: "COc1ccc(CC(=O)NS(=O)(=O)C(F)(F)F)cc1"
  PI: 10
- Smi: "O=C(Cc1ccc([N+](=O)[O-])cc1)NS(=O)(=O)C(F)(F)F"
  PI: 24
- Smi: "O=C(Cc1ccc(Br)cc1)NS(=O)(=O)C(F)(F)F"
  PI: 5.3
- Smi: "O=C(Cc1cccc(Cl)c1)NS(=O)(=O)C(F)(F)F"
  PI: 7.2

###

Test system: Mus musculus
Test description: Median effective dose was evaluated by Maximal electroshock seizure test through intraperitoneal administration
Assay type: functional
Experimental setup: ip
Friendly reminder: ED50 below 8 mg/kg is Yes, at or above is No.

- Compound: "O=C(Cc1ccc(Cl)cc1)NS(=O)(=O)C(F)(F)F"
  Assigned label: "Yes"
- Compound: "CCC1(C)CC(=O)NC1=O (stereo not drawn) [ETHOSUXIMIDE]"
  Assigned label: "No"
- Compound: "COc1cccc(CC(=O)NS(=O)(=O)C(F)(F)F)c1"
  Assigned label: "No"
- Compound: "O=C(Cc1cccc(Cl)c1)NS(=O)(=O)C(F)(F)F"
  Assigned label: "Yes"
- Compound: "O=C(Cc1ccc([N+](=O)[O-])cc1)NS(=O)(=O)C(F)(F)F"
  Assigned label: "No"
- Compound: "O=C(Cc1ccc(Br)cc1)NS(=O)(=O)C(F)(F)F"
  Assigned label: "No"
- Compound: "CCC1(c2ccccc2)C(=O)NC(=O)NC1=O"
  Assigned label: "No"
- Compound: "O=C(Cc1ccccc1)NS(=O)(=O)C(F)(F)F"
  Assigned label: "Yes"

###

Tested on: Rattus norvegicus
Test description: Time to peak effect in Rats was evaluated by Maximal electroshock seizure (MES) test in hours by oral administration
Format: functional
Property: TPE; scope: individual compounds
Experimental endpoint: TPE (h)

- Smi: "O=C1NC(=O)C(c2ccccc2)(c2ccccc2)N1"
  Unit tag: "h"
  Value: 4
- Smi: "CCC1(c2ccccc2)C(=O)NC(=O)NC1=O"
  Unit tag: "h"
  Value: 5
- Smi: "O=C(Cc1ccccc1)NS(=O)(=O)C(F)(F)F"
  Unit tag: "h"
  Value: 8
- Smi: "CCCC(CCC)C(=O)O"
  Unit tag: "h"
  Value: 0.5

###

Species: Mus musculus
Test description: Time to peak toxicity was evaluated by Maximal electroshock seizure test in hours
Type: functional
Experimental endpoint: TPE

- Smi: "O=C(Cc1ccc(Br)cc1)NS(=O)(=O)C(F)(F)F"
  Experimental endpoint: "TPE"
  Value: 2
- Smi: "O=C1NC(=O)C(c2ccccc2)(c2ccccc2)N1"
  Experimental endpoint: "TPE"
  Value: 2
- Smi: "COc1cccc(CC(=O)NS(=O)(=O)C(F)(F)F)c1"
  Experimental endpoint: "TPE"
  Value: 2
